target: WD repeat-containing protein 5 (Homo sapiens, UniProt P61964); assay: Inhibition of WDR5 in human HEK293T cells assessed as reduction in WDR5-MYC interaction at 5 uM incubated for 24 hrs by immunoprecipitation analysis; assay type: cell-based; details: HEK-293T
Calls of active or inactive are those of the source. The rule behind the calls is not given here.
Use one of these outcomes when replying: active, inactive

Below are worked cases with known answers.
[in] For this compound, state the assay outcome: O=S(=O)(Nc1cn(C2CCCC2)cn1)c1cc(Br)cc(Cl)c1O
[out] active

[in] # fetch the recorded call for O=S(=O)(Nc1cnn(C2CCCC2)c1)c1cc(Br)cc(Cl)c1O here
[out] inactive

[in] Identify the outcome logged in this assay for the compound shown: CS(=O)(=O)c1nc(NS(=O)(=O)c2cc(Br)cc(Cl)c2O)cn1C1CCCC1
[out] active

[in] Please state the recorded outcome for this compound: CNC(=O)c1nc(NS(=O)(=O)c2cc(Br)cc(Cl)c2O)cn1C1CCCC1
[out] active

---
[in] Hey, what did the test say about CCOC(=O)c1nc(NS(=O)(=O)c2cc(Br)cc(Cl)c2O)cn1C1CCCC1 ?
[out] active

====

Kd: recorded values
target: UniProt P61964; assay: Binding affinity to recombinant human His/FLAG-tagged WDR5 (22 to 334 residues) expressed in Escherichia coli expression system using FITC-AHx-SEEEIDVVSV as substrate by fluorescence polarization assay
Reply numerically in µM, unit not repeated.

The measured Kd associated with O=S(=O)(Nc1cn(C(C2CC2)C2CC2)cn1)c1cc(Br)cc(Cl)c1O reads 1.2

Recorded Kd (compound O=C(c1nc(NS(=O)(=O)c2cc(Br)cc(Cl)c2O)cn1C1CCCC1)N1CCC(C2CCCN2)CC1 (configuration not stated) ): 5

Entry under test: O=S(=O)(Nc1cn(C2CCNC2)cn1)c1cc(Br)cc(Cl)c1O (configuration not stated) . Its Kd was 11

Continuing:
# Kd (compound: O=S(=O)(Nc1cn(CC2CC2)cn1)c1cc(Br)cc(Cl)c1O ) is 2.1

O=S(=O)(Nc1nc2ccccc2s1)c1cc(Br)cc(Cl)c1O yielded Kd of 32

According to the records, this compound O=S(=O)(Nc1cn(CC2CCCO2)cn1)c1cc(Br)cc(Cl)c1O (configuration not stated) displays Kd of 8

O=S(=O)(Nc1cn(C2CCCC2)cn1)c1cc(Br)cc(Cl)c1O yielded Kd of 0.4
